target.or.test.system: UniProt O60674
conditions.used: read-out: JAK2 IC50
pIC50: −log10 of the molar value.
# pIC50 values compiled below
recorded.endpoint: pIC50

compound: CS(=O)(=O)c1ccc(-c2cccn3nc(NCc4ccccn4)nc23)cc1 [Example 409]
target.or.test.system: UniProt O60674
measured: 5.19
//
compound: CCOc1ccc(Cl)cc1-c1cccn2nc(Nc3ccc4c(c3)CCNCC4)nc12 [Example 310]
target.or.test.system: UniProt O60674
measured: 7.48
//
compound: CN1CCN(Cc2cccc(Nc3nc4cccc(-c5ccc(S(C)(=O)=O)cc5)n4n3)c2)CC1 [Example 118]
target.or.test.system: UniProt O60674
measured: 8.84
//
compound: CN1CCN(c2ccc(Nc3nc4c(Nc5ccccc5CN(C)S(C)(=O)=O)cccn4n3)cc2)CC1 [Example 171]
target.or.test.system: UniProt O60674
measured: 7.15

* * *

# pIC50 values compiled below
target.or.test.system: human FAK (Homo sapiens (Human), UniProt Q05397)
Sequence (Q05397 whole entry): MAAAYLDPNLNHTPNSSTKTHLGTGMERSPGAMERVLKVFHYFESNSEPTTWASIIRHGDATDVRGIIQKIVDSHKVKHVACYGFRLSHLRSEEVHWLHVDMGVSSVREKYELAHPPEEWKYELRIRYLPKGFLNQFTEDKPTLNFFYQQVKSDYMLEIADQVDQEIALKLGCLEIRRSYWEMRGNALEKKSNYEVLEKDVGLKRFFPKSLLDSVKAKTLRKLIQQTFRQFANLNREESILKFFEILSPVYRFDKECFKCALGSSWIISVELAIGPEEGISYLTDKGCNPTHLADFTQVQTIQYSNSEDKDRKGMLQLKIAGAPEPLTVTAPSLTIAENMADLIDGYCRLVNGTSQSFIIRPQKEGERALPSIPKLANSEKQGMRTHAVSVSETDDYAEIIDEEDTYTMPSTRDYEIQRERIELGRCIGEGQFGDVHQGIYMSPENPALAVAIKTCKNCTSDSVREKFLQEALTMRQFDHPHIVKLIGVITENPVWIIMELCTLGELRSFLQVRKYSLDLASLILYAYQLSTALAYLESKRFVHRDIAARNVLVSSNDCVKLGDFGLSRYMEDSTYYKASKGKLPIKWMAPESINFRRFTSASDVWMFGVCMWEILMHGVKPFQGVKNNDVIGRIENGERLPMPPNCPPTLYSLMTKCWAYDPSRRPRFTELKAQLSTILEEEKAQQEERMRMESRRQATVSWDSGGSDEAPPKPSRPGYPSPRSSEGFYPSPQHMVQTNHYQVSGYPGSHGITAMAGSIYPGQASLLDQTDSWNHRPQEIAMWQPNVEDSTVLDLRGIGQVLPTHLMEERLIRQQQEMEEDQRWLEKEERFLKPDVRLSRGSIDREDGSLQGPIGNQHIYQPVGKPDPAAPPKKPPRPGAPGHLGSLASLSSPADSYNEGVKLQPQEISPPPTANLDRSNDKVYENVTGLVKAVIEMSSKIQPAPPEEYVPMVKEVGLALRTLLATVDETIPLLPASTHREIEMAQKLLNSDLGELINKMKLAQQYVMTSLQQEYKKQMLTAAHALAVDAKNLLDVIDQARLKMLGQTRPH
conditions.used: read-out: FAK IC50
pIC50: −log10 of the molar value.

smiles.string: C[C@@H](O)CN1CCN(c2cccc(Nc3nc4c(-c5ccc(S(C)(=O)=O)cc5)cccn4n3)c2)CC1
pIC50: 5.70
--
smiles.string: CS(=O)(=O)CCN1CCc2ccc(Nc3nc4c(-c5cccc6c5OC(F)(F)O6)cccn4n3)cc2CC1
pIC50: 5.70
--
smiles.string: CN(Cc1ccccc1CNc1cccn2nc(Nc3ccc(OCCN4CCCC4)cc3)nc12)S(C)(=O)=O
pIC50: 6.56
--
smiles.string: CN1CCN(c2cccc(Nc3nc4c(Nc5cccnc5N(C)S(C)(=O)=O)cccn4n3)c2)CC1
pIC50: 5.70
--
smiles.string: CC(=O)Nc1cccc(Nc2nc3c(-c4ccc(S(C)(=O)=O)cc4)cccn3n2)c1
pIC50: 5.00
--
smiles.string: CN1CCN(c2ccc(Nc3nc4c(NCc5ccccc5CN(C)S(C)(=O)=O)cccn4n3)cc2)CC1
pIC50: 6.75
--
smiles.string: CN(C)C(=O)CN1CCc2ccc(Nc3nc4c(-c5cc(C(F)(F)F)ccc5OCC(F)F)cccn4n3)cc2CC1
pIC50: 6.00

* * *

target.or.test.system: human JAK2 (Homo sapiens (Human), UniProt O60674)
Sequence (O60674 815-1132): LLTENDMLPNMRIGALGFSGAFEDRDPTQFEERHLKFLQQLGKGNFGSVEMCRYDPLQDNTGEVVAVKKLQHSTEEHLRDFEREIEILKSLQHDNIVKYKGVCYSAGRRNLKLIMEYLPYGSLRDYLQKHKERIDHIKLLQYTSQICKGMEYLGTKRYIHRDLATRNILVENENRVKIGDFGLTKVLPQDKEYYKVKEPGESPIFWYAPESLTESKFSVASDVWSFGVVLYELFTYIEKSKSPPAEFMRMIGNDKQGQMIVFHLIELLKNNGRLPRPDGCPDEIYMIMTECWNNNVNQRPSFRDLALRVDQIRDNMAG
conditions.used: read-out: JAK2 IC50
pIC50: −log10 of the molar value.
# pIC50 values compiled below
recorded.endpoint: pIC50

smiles.string: CN1CCC(c2ccc(Nc3nc4c(NCc5cccc(S(C)(=O)=O)c5)cccn4n3)cc2)CC1
target.or.test.system: human JAK2 (Homo sapiens (Human), UniProt O60674)
measured: 6.48

smiles.string: CN1CCN(c2ccc(Nc3nc4c(Nc5cccnc5N(C)S(C)(=O)=O)cccn4n3)cc2)CC1
target.or.test.system: human JAK2 (Homo sapiens (Human), UniProt O60674)
measured: 7.94

smiles.string: CN1CCN(c2cccc(Nc3nc4c(C#Cc5ccccc5N(C)S(C)(=O)=O)cccn4n3)c2)CC1
target.or.test.system: human JAK2 (Homo sapiens (Human), UniProt O60674)
measured: 7.62

smiles.string: CN1CCN(c2ccc(Nc3nc4cccc(-c5ccc(NS(C)(=O)=O)cc5)n4n3)cc2)CC1
target.or.test.system: human JAK2 (Homo sapiens (Human), UniProt O60674)
measured: 8.55

smiles.string: CS(=O)(=O)c1ccc(-c2cccn3nc(Nc4cccc(N5CCN(CC(N)=O)CC5)c4)nc23)cc1
target.or.test.system: human JAK2 (Homo sapiens (Human), UniProt O60674)
measured: 9.19

smiles.string: CC1(C)CCC(C)(C)c2cc(Nc3nc4c(-c5ccc(S(C)(=O)=O)cc5)cccn4n3)ccc21
target.or.test.system: human JAK2 (Homo sapiens (Human), UniProt O60674)
measured: 7.56

smiles.string: CN(c1ccccc1CNc1cccn2nc(Nc3ccccc3)nc12)S(C)(=O)=O
target.or.test.system: human JAK2 (Homo sapiens (Human), UniProt O60674)
measured: 6.24

smiles.string: CN1CCN(c2cccc(Nc3nc4c(Nc5ccccc5S(C)(=O)=O)cccn4n3)c2)CC1
target.or.test.system: human JAK2 (Homo sapiens (Human), UniProt O60674)
measured: 7.54

* * *

target.or.test.system: human JAK2 (Homo sapiens (Human))
conditions.used: read-out: JAK2 IC50
Note to self: use rule met only for IC50 readings below 0.07 µM; a reading exactly at 0.07 µM still gets rule not met.

compound: CN1CCN(c2ccc(Nc3nc4c(-c5cccc(S(C)(=O)=O)c5)cccn4n3)cc2)CC1 [Example 59]
label.value: rule met
--
compound: Cc1ccc(-n2cc(-c3cccn4nc(Nc5ccc(C6CCN(C(=O)OC(C)(C)C)CC6)cc5)nc34)cn2)cc1 [Example 287]
label.value: rule not met
--
compound: CS(=O)(=O)c1ccc(-c2cccc3nc(Nc4ccc(OCCN5CCCC5)cc4)nn23)cc1 [Example 73]
label.value: rule met
--
compound: CN1CCN(c2ccc(NC(=O)Nc3nc4cccc(-c5cccc(S(C)(=O)=O)c5)n4n3)cc2)CC1 [Example 89]
label.value: rule not met
--
compound: CN1CCN(c2ccc(Nc3nc4cccc(-c5ccc(CN6CCS(=O)(=O)CC6)cc5)n4n3)cc2)CC1 [Example 70]
label.value: rule met
--
compound: COc1cnc(-c2cccn3nc(Nc4ccc(C5CCN(C(=O)OC(C)(C)C)CC5)cc4)nc23)cn1 [Example 284]
label.value: rule not met
--
compound: CN1CCC(c2ccc(Nc3nc4c(Nc5cccnc5N(C)S(C)(=O)=O)cccn4n3)cc2)CC1 [Example 133]
label.value: rule met
--
compound: CS(=O)(=O)c1ccc(-c2cccc3nc(Nc4cccc(CN5CCOCC5)c4)nn23)cc1 [Example 117]
label.value: rule met
--
compound: CS(=O)(=O)c1ccc(-c2cccn3nc(Nc4cnn(CCN5CCCC5)c4)nc23)cc1 [Example 219]
label.value: rule met
--
compound: COc1ccccc1-c1cccn2nc(Nc3ccc4c(c3)CCN(CCS(C)(=O)=O)CC4)nc12 [Example 314]
label.value: rule met
--
compound: COc1ccc(C(F)(F)F)cc1-c1cccn2nc(Nc3cccc(C4CCNCC4)c3)nc12 [Example 257]
label.value: rule met
--
compound: CN1CCN(c2ccc(Nc3nc4cccc(-c5ccc(S(C)(=O)=O)cc5)n4n3)cc2)CC1 [Example 81]
label.value: rule met
--
compound: COc1ccc(C(F)(F)F)cc1Nc1cccn2nc(Nc3cccc(N4CCN(C)CC4)c3)nc12 [Example 290]
label.value: rule not met
--
compound: CN1CCN(c2ccc(Nc3nc4c(/C=C/c5ccccc5N(C)S(C)(=O)=O)cccn4n3)cc2)CC1 [Example 196]
label.value: rule met
--
compound: COc1ccc(Nc2nc3c(Nc4ccc(S(C)(=O)=O)cc4)cccn3n2)cc1 [Example 38]
label.value: rule not met
--
compound: CS(=O)(=O)c1cccc(-c2cccn3nc(Nc4cccc(N5CCOCC5)c4)nc23)c1 [Example 29]
label.value: rule met
--
compound: Cc1ccc(OCC(C)C)c(-c2cccn3nc(Nc4ccc5c(c4)CCNCC5)nc23)c1 [Example 305]
label.value: rule not met
--
compound: CN1CCC(c2cccc(Nc3nc4c(-c5cccc(N(C)S(C)(=O)=O)c5)cccn4n3)c2)CC1 [Example 129]
label.value: rule met
--
compound: CS(=O)(=O)c1ccc(-c2cccn3nc(Nc4ccc(OCCN5CCCC5)cc4)nc23)cc1 [Example 10]
label.value: rule met
--
compound: COc1ccc(C(F)(F)F)cc1-c1cccn2nc(Nc3ccc4c(c3)CCN(CC(=O)N(C)C)CC4)nc12 [Example 317]
label.value: rule met
--
compound: c1cncc(CNc2cccn3nc(Nc4ccc(OCCN5CCCC5)cc4)nc23)c1 [Example 154]
label.value: rule not met
--
compound: CCn1cc(Nc2nc3c(Oc4ccc(S(C)(=O)=O)cc4)cccn3n2)cn1 [Example 211]
label.value: rule not met
--
compound: CN1CCC(c2cccc(Nc3nc4c(-c5ccc(S(C)(=O)=O)cc5)cccn4n3)c2)CC1 [Example 61]
label.value: rule met
--
compound: COc1ccc(C(F)(F)F)cc1-c1cccn2nc(Nc3ccc(OCCN4CCOCC4)cc3)nc12 [Example 258]
label.value: rule not met
--
compound: CN(C)C(=O)CN1CCc2ccc(Nc3nc4c(-c5ccccc5OCC(F)F)cccn4n3)cc2CC1 [Example 368]
label.value: rule not met
--
compound: CS(=O)(=O)c1ccc(-c2cccn3nc(Nc4ccc5c(c4)CCC(N4CCOCC4)CC5)nc23)cc1 (stereo not shown) [Example 145]
label.value: rule met
--
compound: COc1ncc(C(F)(F)F)cc1-c1cccn2nc(Nc3ccc(C4CCN(CC(=O)N(C)C)CC4)cc3)nc12 [Example 279]
label.value: rule not met
--
compound: CN1CCN(c2cncc(Nc3nc4c(-c5ccc(S(C)(=O)=O)cc5)cccn4n3)n2)CC1 [Example 386]
label.value: rule met
--
compound: COc1ccccc1Nc1nc2c(-c3ccc(S(C)(=O)=O)cc3)cccn2n1 [Example 25]
label.value: rule not met
--
compound: CN(c1ccc(-c2cccn3nc(Nc4ccc(CN5CCS(=O)(=O)CC5)cc4)nc23)cc1)S(C)(=O)=O [Example 119]
label.value: rule met
--
compound: COc1ncccc1-c1cccn2nc(Nc3ccc(C4CCN(CC(=O)N(C)C)CC4)cc3)nc12 [Example 273]
label.value: rule not met
